# Run Description: qHTS assay to test for compound auto fluorescence at 590 nm (red) in HepG2 cells (AID 720674)
# Reported Conditions: HepG2 autofluorescence, red 540/590 nm, 1 h; series mostly up to 91.3 µM
The source made the active and inactive calls. Calls come from the whole dose curve; as a rule, active = well fitted curve in the direction sought with a large enough effect in the repeat runs; inconclusive = weak or mixed curves; inactive = flat fitted curve, though single readings scatter.
Measured Attribute: fluorescence, relative to Rose Bengal

>>> result("COc1ccccc1N=Nc1c(S(=O)(=O)O)cc2cc(S(=O)(=O)O)cc(NC(C)=O)c2c1O")
"inactive"
>>> result("Brc1cc(-c2ccc(Br)c(Br)c2Br)cc(Br)c1Br")
"inactive"
>>> result("O=S1OCCO1")
"inactive"
>>> result("CC[C@@H]([C@H](C)O)n1ncn(-c2ccc(N3CCN(c4ccc(OC[C@@H]5CO[C@@](Cn6cncn6)(c6ccc(F)cc6F)C5)cc4)CC3)cc2)c1=O")
"inactive"
>>> result("NC(=O)Cn1c(=O)cc(CCN2CCN(c3nccc4sccc34)CC2)c2ccc(F)cc21")
"inactive"

Request: Fill in reported fluorescence, relative to Rose Bengal for this entry: "C[C@@H]1C[C@H]2[C@@H]3CCC4=CC(=O)C=C[C@]4(C)[C@@]3(F)[C@@H](O)C[C@]2(C)[C@@]1(O)C(=O)CO"
Result: inactive

Request: Fill in reported fluorescence, relative to Rose Bengal for this entry: "Cc1cc(O)c2c(O)c3c(O)cccc3cc2c1"
Result: inactive

Request: Fill in reported fluorescence, relative to Rose Bengal for this entry: "CCCCCCCCCOC(C)=O"
Result: inactive

Request: Fill in reported fluorescence, relative to Rose Bengal for this entry: CC(COc1ccc(C(C)(C)C)cc1)OS(=O)OCCCl (stereo unspecified)
Result: inactive

Request: Fill in reported fluorescence, relative to Rose Bengal for this entry: "CC(C)(C)C(=O)O"
Result: inactive

Request: Fill in reported fluorescence, relative to Rose Bengal for this entry: "Cc1oncc1C(=O)Nc1ccc(C(F)(F)F)cc1"
Result: inactive

###

# Run Description: qHTS assay to identify small molecule antagonists of the estrogen related receptor (ERR) signaling pathway from Tox21 library (AID 1224848); note: nearly all actives have a fitted effect of over 50% in size
# Reported Conditions: ERR reporter cell line, luciferase antagonist mode, 18 h; series mostly up to 92.4 µM
Records with an inconclusive call do not appear. The source made the active and inactive calls. Calls follow the shape of the dose curve; as a rule, active = well fitted inhibition curve with a large enough effect in the repeat runs; inconclusive = weak or mixed curves; inactive = no such curve, though single readings can be large or run the other way.
Select the matching outcome among active, inactive

>>> assigned_label("Cc1ccc(S(=O)(=O)NC2CCCCC2)cc1")
"active"
>>> assigned_label("C[Si]1(C)O[Si](C)(C)O[Si](C)(C)O1")
"inactive"
>>> assigned_label("OC/C(Br)=C(\\Br)CO")
"inactive"
>>> assigned_label("c1ccc(COCc2ccccc2)cc1")
"inactive"
>>> assigned_label("OC(CCCN1CCCCC1)(c1ccccc1)c1ccccc1")
"inactive"
>>> assigned_label("CC1(C)C(=O)N(Br)C(=O)N1Cl")
"inactive"

Let us examine a further case.
Request: For "CCCCCCCCCCCC(=O)[O][Sn]([CH2]CCC)([CH2]CCC)[O]C(=O)CCCCCCCCCCC" , which call appears in the assay record?
Result: inactive

###

# Run Description: qHTS RealTime-Glo MT Cell Viability Assay in HEK293 cells - 40 hour (AID 1224874); note: potency is the fitted concentration of half-maximal effect; nearly all actives have a fitted effect of over 50% in size
# Reported Conditions: RealTime-Glo luminescence
Records with an inconclusive call do not appear. Calls of active or inactive are those of the source. Calls come from the whole dose curve; as a rule, active = well fitted cell-killing curve with a large enough effect in the repeat runs; inconclusive = weak or mixed curves, or effect the other way; inactive = flat fitted curve, though single readings scatter.
Measured Attribute: Potency

Observe how each entry below is paired with its result.
>>> result("CCCC1C(CC)=CC(CC)=CN1c1ccccc1 (stereo unspecified)")
"13.8 µM (active)"
>>> result("Cc1occc1C(=O)Nc1ccc(C(=O)N2CCC(F)(F)/C(=C\\C(=O)N3CCC(N4CCCCC4)CC3)c3ccccc32)cc1")
"6.83 µM (active)"

Request: Fill in reported Potency for this entry: "CC[C@@H]([C@H](C)O)n1ncn(-c2ccc(N3CCN(c4ccc(OC[C@@H]5CO[C@@](Cn6cncn6)(c6ccc(F)cc6F)C5)cc4)CC3)cc2)c1=O"
Result: 5.35 µM (active)

Request: Fill in reported Potency for this entry: "Cc1ccc(Nc2nccc(N(C)c3ccc4c(C)n(C)nc4c3)n2)cc1S(N)(=O)=O"
Result: 1.34 µM (active)

Request: Fill in reported Potency for this entry: "C=CC(C)(C)CC(=O)OC"
Result: 1.55 µM (active)

Request: Fill in reported Potency for this entry: "O=C(CCCN1CCC(O)(c2ccc(Br)cc2)CC1)c1ccc(F)cc1"
Result: 10.7 µM (active)

Request: Fill in reported Potency for this entry: "Oc1ccc(Nc2ccccc2)cc1"
Result: 19.5 µM (active)

Request: Fill in reported Potency for this entry: "CO[C@H]1C=CO[C@@]2(C)Oc3c(C)c(O)c4c(O)c(c5c(c4c3C2=O)=NC2(CCN(CC(C)C)CC2)N=5)NC(=O)/C(C)=C\C=C/[C@H](C)[C@H](O)[C@@H](C)[C@@H](O)[C@@H](C)[C@H](OC(C)=O)[C@@H]1C"
Result: 38.1 µM (active)

Request: Fill in reported Potency for this entry: "CCCCN(CCCC)C(=S)SSC(=S)N(CCCC)CCCC"
Result: 38.5 µM (active)

Request: Fill in reported Potency for this entry: "NC(=O)Cn1c(=O)cc(CCN2CCN(c3nccc4sccc34)CC2)c2ccc(F)cc21"
Result: 43.6 µM (active)

Request: Fill in reported Potency for this entry: "Cc1cc2nc3ccc(=[N+](C)C)cc-3sc2cc1N"
Result: 2.13 µM (active)

Request: Fill in reported Potency for this entry: "COCCOC"
Result: 0.83 µM (active)

Request: Fill in reported Potency for this entry: "CO[C@@]12[C@H](COC(N)=O)C3=C(C(=O)C(C)=C(N)C3=O)N1C[C@@H]1N[C@@H]12"
Result: 0.674 µM (active)

Request: Fill in reported Potency for this entry: "CCCCCCCCCCCCCCC[C@H](O)[C@@H](N)CO"
Result: 26.8 µM (active)

Request: Fill in reported Potency for this entry: "CCC(=O)Oc1ccc(/C(CC)=C(\CC)c2ccc(OC(=O)CC)cc2)cc1"
Result: 17.4 µM (active)

Request: Fill in reported Potency for this entry: "O=C(CCC1CCN(Cc2ccccc2)CC1)c1ccc2c(c1)NCCCC2"
Result: 9.52 µM (active)

###

# Run Description: qHTS assay for identifying genotoxic compounds that show differential cytotoxicity against isogenic chicken DT40 cell lines with known DNA damage response pathways - Rev3 mutant cell line (AID 743014); note: nearly all actives have a fitted effect of over 55% in size
# Reported Conditions: chicken DT40 Rev3-/- viability, CellTiter-Glo, 40 h; series mostly up to 68.4 µM
Records with an inconclusive call do not appear. Calls of active or inactive are those of the source. The call rests on the fitted dose curve; in most records, active means well fitted cell-killing curve with a large enough effect in the repeat runs; inconclusive means weak or mixed curves, or effect the other way; inactive means no such curve, though single readings can be large or run the other way.
Select the matching outcome among True = active, False = inactive

Check out these entries, answers already filled in.
>>> assigned_label("CC(C)C(OC(=O)c1ccccc1)C(C)(C)COC(=O)c1ccccc1 (stereo unspecified)")
"True"
>>> assigned_label("OCC1CC=CCC1 (stereo unspecified)")
"False"
>>> assigned_label("CN1CCN(CCCN2c3ccccc3Sc3ccc(S(=O)(=O)N(C)C)cc32)CC1")
"False"

Request: For "COc1cc2ncnc(Nc3ccc(F)c(Cl)c3)c2cc1OCCCN1CCOCC1" , which call appears in the assay record?
Result: True

Request: For "O=C(O)c1ccc(CO)o1" , which call appears in the assay record?
Result: False

Request: For "CC1=C(C=O)C(C)(C)CCC1" , which call appears in the assay record?
Result: False

Request: For "C=C(C)C(=O)OCCOC(=O)CC(C)=O" , which call appears in the assay record?
Result: False

Request: For "O=C(/C=C/c1ccccc1)OCCCc1ccccc1" , which call appears in the assay record?
Result: False

Request: For "CC1(C)C(=O)N(Br)C(=O)N1Cl" , which call appears in the assay record?
Result: True

Request: For "CCC(=O)OC/C=C/c1ccccc1" , which call appears in the assay record?
Result: False

Request: For "CCCCN(CCCC)CCCOC(=O)c1ccc(N)cc1" , which call appears in the assay record?
Result: True

###

# System Tested: Aromatase (Homo sapiens)
# Run Description: qHTS assay to identify aromatase inhibitors (AID 743083); note: nearly all actives have a fitted effect of over 55% in size
# Reported Conditions: MCF-7 aro ERE, testosterone-driven ERE luciferase, 24 h; series mostly up to 70.3 µM
Inconclusive results are not listed. The source made the active and inactive calls. Calls come from the whole dose curve; as a rule, active = well fitted inhibition curve with a large enough effect in the repeat runs; inconclusive = weak or mixed curves; inactive = no such curve, though single readings can be large or run the other way.
Measured Attribute: outcome

Observe how each entry below is paired with its result.
>>> result("CCCCC1C(=O)N(c2ccccc2)N(c2ccc(O)cc2)C1=O (configuration not stated)")
"inactive"
>>> result("CCC(C(=O)OCCOCCN(CC)CC)c1ccccc1 (configuration not stated)")
"inactive"
>>> result("CCOC(=O)c1ccccc1OC")
"inactive"
>>> result("CCCCC(=O)O[C@]1(C(=O)CO)CC[C@H]2[C@@H]3CCC4=CC(=O)CC[C@]4(C)[C@H]3[C@@H](O)C[C@@]21C")
"inactive"
>>> result("CCCCCCCCCCCC(=O)[O][Sn]([CH2]CCC)([CH2]CCC)[O]C(=O)CCCCCCCCCCC")
"inactive"

Request: // fetch outcome for "CCOC(=O)[C@@H](C)Oc1ccc(Oc2nc3ccc(Cl)cc3o2)cc1" ; system: Aromatase (Homo sapiens)
Result: inactive

Request: // fetch outcome for "CCCCC(=O)O[C@]1(C(=O)CO)[C@@H](C)C[C@H]2[C@@H]3CCC4=CC(=O)C=C[C@]4(C)[C@@]3(F)[C@@H](O)C[C@@]21C" ; system: Aromatase (Homo sapiens)
Result: inactive

Request: // fetch outcome for "CC(C)(C)C(=O)O" ; system: Aromatase (Homo sapiens)
Result: inactive
